assay: Anticonvulsant activity against audiogenic Clonic seizures in DBA/2 mice, administered ip 30 minutes before auditory stimulation.; format: functional; settings: Mus musculus
Note to self: ED50 under 20 µmol/kg means true (1), ties and anything higher get false (0).

compound	classAssignment
CCCCC(=O)NN1N=C(c2ccc(N)cc2)c2cc3c(cc2CC1=O)OCO3	false (0)
CC(=O)NN1NC(c2ccc(N)cc2)c2cc3c(cc2CC1=O)OCO3 (stereo not drawn)	false (0)
CCC(=O)NN1N=C(c2ccc(N)cc2)c2cc3c(cc2CC1=O)OCO3	true (1)
CCC(=O)NN1NC(c2ccc(N)cc2)c2cc3c(cc2CC1=O)OCO3 (stereo not drawn)	false (0)
CCCC(=O)NN1NC(c2ccc(N)cc2)c2cc3c(cc2CC1=O)OCO3 (stereo not drawn)	false (0)
Nc1ccc(C2NNC(=O)Cc3cc4c(cc32)OCO4)cc1 (stereo not drawn)	true (1)
CCCC(=O)NN1N=C(c2ccc(N)cc2)c2cc3c(cc2CC1=O)OCO3	false (0)
CC(=O)NN1N=C(c2ccc(N)cc2)c2cc3c(cc2CC1=O)OCO3	true (1)
